# target-entity: BRD4 Bromodomain 2 (BRD4 BD2) (Homo sapiens, UniProt O60885)
# Construct: 333-460 were cloned, expressed, and purified to homogeneity
# method-notes: AlphaScreen binding assay, BRD4 BD2
# cond: His-tagged BRD4 BD2 100 nM, biotinylated H4 (1-21) K5/8/12/16 tetra-acetylated peptide 100 nM, compounds listed under IC50 range headings
pIC50: −log10 of the molar value.
readout-type: pIC50

Field: example entries. Status: answers known.
Given the compound `COC(=O)N1c2ccc(-c3cnn(C4CCNCC4)c3)c(Oc3ncccc3C#N)c2CC[C@@H]1C` , write its reported pIC50.
6.30 to 7.30

Given the compound `COC(=O)N1c2ccc(-c3cnn(C4CC4)c3)c(Oc3ccc(Cl)cc3)c2CC[C@@H]1C` , write its reported pIC50.
> 7.30

Given the compound `COC(=O)N1c2ccc(-c3cnn(CC(C)(C)O)c3)c(OCC(=O)N3CCCC3)c2CC[C@@H]1C` , write its reported pIC50.
6.30 to 7.30

Given the compound `COC(=O)N1c2ccc(-c3cnn(C4CCNCC4)c3)c(Oc3ccc(C(N)=O)cn3)c2CC[C@@H]1C` , write its reported pIC50.
6.30 to 7.30

Given the compound `CC(=O)N1c2ccc(-c3cnn(CC(C)(C)O)c3)c(OCCN(C)S(C)(=O)=O)c2CC[C@@H]1C` , write its reported pIC50.
6.30 to 7.30

Switching to the query record.
Given the compound `CC(=O)N1c2ccc(-c3cnn(C4CC4)c3)c(OCS(=O)(=O)N(C)C)c2CC[C@@H]1C` , write its reported pIC50.
6.30 to 7.30
